Where do these numbers come from? They come from ChEMBL document CHEMBL1147936.

Molecular target: 5-hydroxytryptamine receptor 3A (Cavia porcellus) (UniProt O70212)
Sequence (whole entry): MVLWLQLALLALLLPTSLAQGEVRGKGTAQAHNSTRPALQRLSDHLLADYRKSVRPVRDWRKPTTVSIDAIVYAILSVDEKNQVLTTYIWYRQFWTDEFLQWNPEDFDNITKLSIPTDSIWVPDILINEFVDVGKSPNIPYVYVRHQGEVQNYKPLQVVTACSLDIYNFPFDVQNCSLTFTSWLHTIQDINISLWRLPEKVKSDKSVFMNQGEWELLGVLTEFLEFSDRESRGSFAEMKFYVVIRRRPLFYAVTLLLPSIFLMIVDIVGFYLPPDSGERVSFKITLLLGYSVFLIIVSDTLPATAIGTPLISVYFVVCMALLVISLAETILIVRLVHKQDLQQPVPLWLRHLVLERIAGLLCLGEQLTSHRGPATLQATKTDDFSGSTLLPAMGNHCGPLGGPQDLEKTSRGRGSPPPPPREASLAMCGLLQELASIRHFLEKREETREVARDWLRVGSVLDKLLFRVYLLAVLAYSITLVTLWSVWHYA
Test: Agonist activity at 5HT3 receptor in Hartley guinea-pig ileum assessed as muscle contraction
Type: functional, tissue-based
observed.property: pD2
Reply briefly: the number, and no unit.

query.smiles: CN1CCN(c2nc3cc(N)ccc3o2)CC1
pD2: 4.97
//
query.smiles: CCc1cccc2nc(N3CCN(C)CC3)oc12
pD2: 5.48
//
query.smiles: CCc1cc(Cl)cc2nc(N3CCN(C)CC3)oc12
pD2: 6.82

Note to self: pD2 recorded for Cc1cc(C)c2oc(N3CCN(C)CC3)nc2c1 was 6.32

What the record says about CN1CCN(c2nc3cc(F)ccc3o2)CC1 : pD2 is 5.57

Recorded result, CN1CCN(c2nc3ccccc3o2)CC1 , pD2: 5.01

* * *

Molecular target: 5-hydroxytryptamine receptor 3A (Cavia porcellus) (UniProt O70212)
Assay: Antagonist activity at 5HT3 receptor in Hartley guinea-pig ileum assessed as effect on 5-hydroxytryptamine-induced muscle contraction
Type: functional, tissue-based
Set-up: concentration or dose not given beside the values
Threshold-based label: Activity under 80% gives label 1, Activity not under 80% gives label 0.

Before answering, review these 3 worked examples.
query.smiles: COc1ccc2oc(N3CCN(C)CC3)nc2c1
label.value: label 1
//
query.smiles: Cc1cc(Cl)cc2nc(N3CCN(C)CC3)oc12
label.value: label 0
//
query.smiles: CCOC(=O)c1ccc2oc(N3CCN(C)CC3)nc2c1
label.value: label 1

Prompt: Quick check: does CCc1cccc2nc(N3CCN(C)CC3)oc12 have Activity under 80%?
Response: label 0

Prompt: Please check: Activity for CN1CCN(c2nc3cc(C(C)(C)C)ccc3o2)CC1 , strictly under 80% or not?
Response: label 1

Prompt: Check if Activity falls below 80% for Cc1cccc2nc(N3CCN(C)CC3)oc12 .
Response: label 0

Prompt: Check if Activity falls below 80% for CN1CCN(c2nc3cc(N)ccc3o2)CC1 .
Response: label 1

Prompt: Is 80% strictly greater than the compound's reported Activity? compound: COc1cc(C)cc2nc(N3CCN(C)CC3)oc12
Response: label 0

Prompt: Hello, is Activity of the following compound strictly smaller than 80%? Cc1cc(C)c2oc(N3CCN(C)CC3)nc2c1
Response: label 0

Prompt: Consider the compound CN1CCN(c2nc3cc(F)ccc3o2)CC1 . Is its Activity strictly less than 80%?
Response: label 0

Prompt: Please indicate whether the reported Activity of Cc1ccc2oc(N3CCN(C)CC3)nc2c1 is strictly below 80%.
Response: label 0

Prompt: Is Activity of CN1CCN(c2nc3cc(C(F)(F)F)ccc3o2)CC1 strictly below 80%?
Response: label 1

* * *

Molecular target: UniProt O70212
Sequence (whole entry): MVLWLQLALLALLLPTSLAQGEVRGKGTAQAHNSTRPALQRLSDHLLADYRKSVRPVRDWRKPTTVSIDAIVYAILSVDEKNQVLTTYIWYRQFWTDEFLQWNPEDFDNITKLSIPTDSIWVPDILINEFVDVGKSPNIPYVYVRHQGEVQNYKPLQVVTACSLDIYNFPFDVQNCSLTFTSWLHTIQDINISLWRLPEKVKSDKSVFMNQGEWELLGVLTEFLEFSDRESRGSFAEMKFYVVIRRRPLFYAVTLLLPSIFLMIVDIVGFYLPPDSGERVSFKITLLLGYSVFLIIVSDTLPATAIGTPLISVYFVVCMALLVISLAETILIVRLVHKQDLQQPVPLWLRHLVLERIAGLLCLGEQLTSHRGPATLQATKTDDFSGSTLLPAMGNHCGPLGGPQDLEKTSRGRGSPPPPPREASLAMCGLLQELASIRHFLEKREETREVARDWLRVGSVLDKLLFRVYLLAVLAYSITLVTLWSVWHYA
Assay: Antagonist activity at 5HT3 receptor in Hartley guinea-pig ileum assessed as effect on 5-hydroxytryptamine-induced muscle contraction
Assay type: functional, tissue-based
Set-up: concentration or dose not given beside the values
observed.property: Activity (%)
Please respond with the number in % and leave the unit unwritten.

Look over these answered cases.
query.smiles: CN1CCN(c2nc3cc(Br)ccc3o2)CC1
Activity, %: 89
//
query.smiles: COc1cc(Cl)cc2nc(N3CCN(C)CC3)oc12
Activity, %: 92
//
query.smiles: CN1CCN(c2nc3cccc(Cl)c3o2)CC1
Activity, %: 90
//
query.smiles: CN1CCN(c2nc3cc(Cl)cc(Cl)c3o2)CC1
Activity, %: 90

Please turn your attention to the following entry.
Entry CN1CCN(c2nc3cc(Cl)ccc3o2)CC1 — recorded Activity = 92
